The measured values listed here are drawn from PubChem BioAssay (NCI).

Recorded measurements of TGI, one per entry
# System: NCI-H23 lung
# experiment notes: NCI tumour cell line growth inhibition, 48 h

CCOC(=O)c1ccccc1NC(c1ccccc1)c1ccc2cccnc2c1O (stereo not drawn) ... > 100 µM
COc1ccc(N=Nc2ccc3oc(=O)c(C(=O)Nc4ccc(OC)cc4)cc3c2)cc1 ... 43.8 µM
CC(=O)NC1C(=O)CC(c2ccccc2)N(C)C1c1ccccc1 (stereo not drawn) ... > 100 µM
COc1cc(NS(C)(=O)=O)ccc1N1Cc2cnc3ccc4[nH]ccc1c4c23 ... > 100 µM
O=C1c2c(ccc3c2CCCC3)CC12Cc1ccccc1C2 ... > 96.2 µM

query: Look up and state reported TGI for Cc1cn2cc(-c3ccncc3)nc2s1
result: > 100 µM

query: Look up TGI of COc1cc2c(cc1C)NC(=O)/C2=C/c1c(Cl)n(C)c2ccccc12 and report it.
result: 21.6 µM

query: Consider the compound C=CC(=O)N1CC[C@@H](Oc2nc(Nc3ccc(N4CCC(N5CCN(C)CC5)CC4)cc3)c(C(N)=O)nc2CC)C1 and give its recorded TGI.
result: > 100 µM

query: Using known records, supply TGI for Nc1nc(NC(=O)C2=NS(=O)(=O)c3cc(S(N)(=O)=O)c(Cl)cc3N2)n[nH]1
result: > 100 µM

query: Determine its reported TGI: O=C(O)CCCCCNC(=O)CCC(CN(CC(=O)OCc1ccccc1)CC(=O)OCc1ccccc1)N(CC(=O)OCc1ccccc1)CC(=O)OCc1ccccc1 (stereo not drawn)
result: 35 µM

* * *

Attribute: TGI
# System: HOP-92 NSCLC
# experiment notes: NCI tumour cell line growth inhibition, 48 h

query: Give TGI for Cn1c(N)c(N=Nc2ccc(S(N)(=O)=O)cc2)c(=O)n(C)c1=O
result: > 100 µM

query: Indicate its recorded TGI; the molecule in question is COC(=O)c1cc2c([nH]c3ccccc32)c(-c2nc3cc(N(S(=O)(=O)c4ccc(C)cc4)S(=O)(=O)c4ccc(C)cc4)c(OC)cc3cc2CO)n1
result: > 100 µM

query: Tell me its TGI given Clc1ccc(CCN2CCN(CCCc3ccccc3)CC2)cc1Cl as the entry.
result: 23.6 µM

query: For the molecule O=C(/C=C/CN1CCCCC1)Nc1cc2c(Nc3ccc(F)c(Cl)c3F)ncnc2cc1OCCOC(F)F , report TGI.
result: 1.12 µM

query: Return reported TGI. Input molecule: CC(C)(C)C(=O)Cc1cc2c(cc1C(=O)O)S(=O)(=O)NC(C(C)(C)C)=C2
result: > 100 µM

query: Find the measured TGI of O=C(c1ccccc1)c1cc(-c2ccccc2)c(-c2ccccc2)[nH]c(=O)c1=O and report it.
result: > 100 µM

query: Entry NCCN.O=N[O-].O=N[O-].O=N[O-].O=N[O-].[Co+3].[K+] needs its TGI filled in; supply it.
result: > 100 µM

query: Report TGI, nothing else, for this molecule: CC(C)OP(=O)(OC(C)C)c1ncn(-c2ccc([N+](=O)[O-])cc2)n1
result: > 100 µM

query: Look up and state reported TGI for CC(C)(C)OC(=O)NCCNC(=O)OCc1ccccc1
result: > 100 µM

query: Determine from records and report TGI for NC(N)=NS(=O)(=O)c1ccc(NC(=O)c2c3ccccc3nc3ccccc23)cc1
result: > 100 µM

* * *

# Tested on: SF-539 CNS
# experiment notes: NCI tumour cell line growth inhibition, 48 h; in the data active means GI50 below about 0.43 µM; inactive means the rest
In this exercise, the only acceptable responses are active, inactive

These recorded examples may help you get a feel for the data.
N#Cc1c(-c2ccc(Cl)cc2)n([O-])c2ccccc2[n+]1=O ... inactive
COc1ccc(C(=O)CC(Cl)=C(Cl)Cl)cc1 ... inactive

query: Which result was noted for this compound in the test: COc1c(C)cnc(Cn2cnc3c(Cl)nc(N)nc32)c1C
result: inactive

query: Could you check what this test reported for CCCCCCn1c(=N)n(CC(O)COc2cccc(C)c2)c2ccccc21 (centres undefined) ?
result: inactive

query: Assay outcome for COC(=O)[C@@H](C)C[C@H](Cc1ccccc1)NC(=O)c1cccc([C@@H](C[C@H](C(C)C)N(C)C(=O)[C@@H](NC(=O)[C@H]2CCCCN2C)C(C)C)OC(C)=O)n1 : what was it?
result: active

query: Recorded call for CCOC(=O)c1ccccc1NC(c1ccccc1)c1ccc2cccnc2c1O (centres undefined) ?
result: inactive

query: How was COc1ccc(C2CC(c3ccc(OC)c(OC)c3)=NN2C(=O)c2cc(OC)c(OC)c(OC)c2)cc1 (centres undefined) classified in this test?
result: inactive

query: Which outcome was entered for the compound COc1ccc(N2CCN(CC(=O)N3CCN(c4nnc(-c5ccc(Cl)cc5)c(-c5ccc(Cl)cc5)n4)CC3)CC2)cc1 in this test?
result: inactive

query: Please state the recorded outcome for this compound: Cc1nc2cc(NC(=O)CN3CCN(CCN4C(=O)c5cccc6cccc(c56)C4=O)CC3)ccc2s1
result: inactive

* * *

# System: HOP-92 NSCLC
# experiment notes: NCI tumour cell line growth inhibition, 48 h; in the data active means GI50 below about 0.43 µM; inactive means the rest
Answer with one of the outcomes active, inactive

Worked examples, 2 compounds total:
COc1ccc2c(c1)CCC1C2CCC2(C)C1CC[C@@]2(O)CNC(=O)/C=C/c1ccc(O)c(O)c1 (stereo partly drawn) ... inactive
CN1CCN(Cc2ccc(NC(=O)c3cncc(C#Cc4c(N)ncc5ccc(F)cc45)c3)cc2C(F)(F)F)CC1 ... active

Now, please, on to the next compound.
query: Please indicate how the test categorized CCCCCCCCCCCCOC1C(C(COC2OC(C(O)CO)C3OC(C)(C)OC23)OC(=O)Nc2ccc([N+](=O)[O-])cc2)OC2OC(C)(C)OC21 (stereo not drawn) .
result: inactive

* * *

# System: IGROV1 ovarian
# experiment notes: NCI tumour cell line growth inhibition, 48 h
TGI overview

Worked examples, 4 compounds total:
O=C1OC2C(O)COC2(OCc2c[nH]c3ccccc23)C1O (stereo unspecified) (tested in a mixture with another compound) ... > 100 µM
Nc1nc(NC(=O)C2=NS(=O)(=O)c3cc(S(N)(=O)=O)c(Cl)cc3N2)n[nH]1 ... > 100 µM
C[N+](C)(C)CC(=O)N/N=C(\C(=O)Nc1ccc(Cl)cc1)C1C(=O)N(c2ccccc2)N=C1N (stereo unspecified) ... > 100 µM
N#CC1=C(N)Oc2c(ccc3ccccc23)C1c1ccccc1Cl (stereo unspecified) ... 15.4 µM

query: Please look at O=C1c2c(ccc3c2CCCC3)CC12Cc1ccccc1C2 and tell me its recorded TGI on IGROV1 ovarian.
result: > 100 µM

query: Using IGROV1 ovarian as the test system, report measured TGI of O=C(C(Cl)=C(Nc1ccccc1)Nc1ccccc1)C(Cl)Cl .
result: > 100 µM

* * *

# System: SF-539 CNS
# experiment notes: NCI tumour cell line growth inhibition, 48 h
TGI overview

O=C(CSCC(=O)N/N=C\c1cc(Br)cc(Br)c1O)N/N=C\c1cc(Br)cc(Br)c1O ... 78.8 µM

query: Output measured TGI for this item: CCC1OC(=O)C(C)C(OC2CC(C)(O)C(O)C(C)O2)C(C)C(O)C(C)(O)CC(C)C(=O)C(C)C(O)C1C (configuration not stated)
result: > 300 µM

query: Could you please provide reported TGI for COc1cc(C2C3=C(COC3=O)N(CCO)c3cc4c(cc32)CCC4)cc(OC)c1OC (configuration not stated) ? Thanks!
result: 0.663 µM

query: Using known records, supply TGI for CN1CCN(Cc2ccc(NC(=O)c3cncc(C#Cc4c(N)ncc5ccc(F)cc45)c3)cc2C(F)(F)F)CC1
result: 2.65 µM

query: Tell us which TGI value is on record for CC(=O)OC1C(OC/C2=C/C3[C@@H](C(C)C)CC=C(C)[C@@H]3CC(OC(=O)/C=C/c3cn(C)cn3)[C@]3(C)C=C[C@@]2(O)O3)OCC(O)C1O (some centres not stated)
result: 0.0598 µM

query: Answer with reported TGI of O=C(NC(c1ccccc1)C(O)C(=O)OCc1ccc2c(c1)C(=O)c1ccccc1C2=O)c1ccccc1 (configuration not stated)
result: 20.6 µM

query: Please give the documented TGI of CCc1cccc(C(C)C)c1C1C(=O)C(=O)N(c2nc3ccccc3s2)C(=O)C1=O
result: > 100 µM

query: // fetch TGI given entry CC(=O)/C=C\C(=O)NNS(=O)(=O)c1ccc(C)cc1
result: > 100 µM

* * *

# Tested on: MOLT-4 leukemia
# experiment notes: NCI tumour cell line growth inhibition, 48 h; in the data active = GI50 below about 0.43 µM; inactive = the rest
Could you please pick one outcome from this set? active, inactive

Before answering, review these 5 worked examples.
CCCCc1ccc(C(N)=O)nc1 ... inactive
Cc1nn(-c2ccccc2)c2ncc3c(c12)C(=O)N(Cc1ccccc1)C3=O ... inactive
O=C(/C=C/CN1CCCCC1)Nc1cc2c(Nc3ccc(F)c(Cl)c3F)ncnc2cc1OCCOC(F)F ... inactive
CN(C)CCCn1c2c(c3ccncc3c1=O)C(=O)c1ccccc1-2 ... active
CN(C)CCCn1c2c(c3ccc([N+](=O)[O-])cc3c1=O)C(=O)c1ccccc1-2 ... inactive

query: I would be grateful if you could indicate the recorded call for COC(=O)[C@@H](C)C[C@H](Cc1ccccc1)NC(=O)c1cccc([C@@H](C[C@H](C(C)C)N(C)C(=O)[C@@H](NC(=O)[C@H]2CCCCN2C)C(C)C)OC(C)=O)n1 .
result: active

query: Assay result, entry COc1ccc(/C=C2\CN(Cc3cn(CCCNc4ccnc5cc(Cl)ccc45)nn3)C/C(=C\c3ccc(OC)cc3)C2=O)cc1 — outcome?
result: inactive

query: Could you kindly confirm the outcome this assay logged for Cn1cnc2nc(Cl)nc(Cl)c21 ?
result: inactive

query: Field: outcome | Entry: CCN(CC)CCCC(C)NC(=S)N/N=C(\C)c1ccccn1 (centres undefined)
result: inactive
